# method notes: Clearance in rat at 2.5 umol/kg, iv
# Format: ADME, organism-based
# experimental context: in vivo
readout label: clearance (mL/min/kg)
Could you give me the number in mL/min/kg? Just the number is fine.

compound structure string	clearance (mL/min/kg)
CC(C)N1CCN(Cc2cnc(-c3ccc(C(=O)Nc4ccccc4N)cc3)c(C#N)c2)CC1	44

Turning to the following compound.
# clearance lookup, item CCN1CCN(Cc2cnc(-c3ccc(C(=O)Nc4ccccc4N)cc3)c(C#N)c2)CC1
47.5

====

# method notes: Half life in rat at 67.1 umol/kg, po
# Format: ADME, organism-based
# experimental context: in vivo
readout label: half-life
# output: number + unit

# half-life lookup, item Cc1cc(CN2CCC2)cnc1-c1ccc(C(=O)Nc2ccccc2N)cc1
5.5 h

====

# method notes: Volume of distribution at steady state in Beagle dog at 0.8 umol/kg, iv
# Assay type: ADME, organism-based, Canis lupus familiaris
# experimental context: in vivo, read-out: Vdss
readout label: Vd (L/kg)
Could you give me the number in L/kg? Just the number is fine.

# Vd lookup, item N#Cc1cc(CN2CCC2)cnc1-c1ccc(C(=O)Nc2ccccc2N)cc1
2.32

====

# method notes: Half life in rat at 55.6 umol/kg, po
# Assay type: ADME, organism-based
# experimental context: in vivo
readout label: half-life (h)
Could you give me the number in h? Just the number is fine.

# half-life lookup, item CCN1CCN(Cc2cnc(-c3ccc(C(=O)Nc4ccccc4N)cc3)c(Cl)c2)CC1
4.4

====

# method notes: Half life in rat at 56.4 umol/kg, po
# Assay type: ADME, organism-based
# experimental context: in vivo
readout label: half-life (h)
Could you give me the number in h? Just the number is fine.

# half-life lookup, item Cc1cc(CN2CCN(C(C)C)CC2)cnc1-c1ccc(C(=O)Nc2ccccc2N)cc1
3.4

====

# method notes: Half life in rat at 63.6 umol/kg, po
# Format: ADME, organism-based
# experimental context: in vivo
readout label: half-life (h)
Could you give me the number in h? Just the number is fine.

# half-life lookup, item Nc1ccccc1NC(=O)c1ccc(-c2ncc(CN3CCC3)cc2Cl)cc1
5.2

====

The following compounds each carry a recorded IC50 for UniProt Q12809.
Sequence (Q12809 whole entry): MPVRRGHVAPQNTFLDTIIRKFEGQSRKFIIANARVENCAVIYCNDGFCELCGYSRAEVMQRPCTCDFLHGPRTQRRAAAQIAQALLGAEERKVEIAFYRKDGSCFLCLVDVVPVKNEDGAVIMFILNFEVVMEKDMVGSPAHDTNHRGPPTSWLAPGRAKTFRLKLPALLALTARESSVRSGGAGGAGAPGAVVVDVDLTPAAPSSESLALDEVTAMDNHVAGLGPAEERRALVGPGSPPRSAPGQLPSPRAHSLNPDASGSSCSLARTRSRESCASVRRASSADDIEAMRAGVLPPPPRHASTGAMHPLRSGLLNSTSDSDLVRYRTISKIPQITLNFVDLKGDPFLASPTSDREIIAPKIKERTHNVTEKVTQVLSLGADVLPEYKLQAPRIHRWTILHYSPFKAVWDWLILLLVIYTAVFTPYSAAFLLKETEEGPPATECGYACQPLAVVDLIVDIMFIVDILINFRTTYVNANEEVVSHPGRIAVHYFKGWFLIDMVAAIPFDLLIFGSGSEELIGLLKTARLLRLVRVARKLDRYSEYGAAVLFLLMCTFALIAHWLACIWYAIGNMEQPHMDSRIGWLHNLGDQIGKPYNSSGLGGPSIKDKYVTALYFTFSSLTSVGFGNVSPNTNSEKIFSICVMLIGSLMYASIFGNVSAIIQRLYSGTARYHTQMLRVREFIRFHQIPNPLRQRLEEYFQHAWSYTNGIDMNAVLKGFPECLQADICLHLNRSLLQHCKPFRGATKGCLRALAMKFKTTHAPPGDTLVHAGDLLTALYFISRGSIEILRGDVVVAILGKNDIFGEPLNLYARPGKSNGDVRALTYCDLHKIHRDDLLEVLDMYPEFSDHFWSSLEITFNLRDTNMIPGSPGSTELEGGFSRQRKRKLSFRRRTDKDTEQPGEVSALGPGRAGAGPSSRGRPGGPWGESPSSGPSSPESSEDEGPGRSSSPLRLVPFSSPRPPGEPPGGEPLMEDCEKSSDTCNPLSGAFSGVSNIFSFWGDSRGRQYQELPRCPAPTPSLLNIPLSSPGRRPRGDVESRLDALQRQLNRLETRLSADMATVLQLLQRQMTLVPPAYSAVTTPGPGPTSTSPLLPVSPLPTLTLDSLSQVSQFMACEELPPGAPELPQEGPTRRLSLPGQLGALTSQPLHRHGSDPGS

compound structure string	IC50
CC(C)N1CCN(Cc2cnc(-c3ccc(C(=O)Nc4ccccc4N)cc3)c(C#N)c2)CC1	19.1 µM
CCN1CCN(Cc2cnc(-c3ccc(C(=O)Nc4ccccc4N)cc3)c(C#N)c2)CC1	> 25.1 µM
N#Cc1cccnc1-c1ccc(C(=O)Nc2ccccc2N)cc1	> 31.6 µM
CCN1CCN(Cc2cnc(-c3ccc(C(=O)Nc4ccccc4N)cc3)c(Cl)c2)CC1	8.32 µM
CC(C)N1CCN(Cc2cnc(-c3ccc(C(=O)Nc4ccccc4N)cc3)c(F)c2)CC1	> 31.6 µM

# IC50 lookup, item CC(C)N1CCN(Cc2cnc(-c3ccc(C(=O)Nc4ccccc4N)cc3)c(Cl)c2)CC1
7.08 µM

# IC50 lookup, item CCN1CCN(Cc2cnc(-c3ccc(C(=O)Nc4ccccc4N)cc3)c(C)c2)CC1
> 25.1 µM

# IC50 lookup, item Nc1ccccc1NC(=O)c1ccc(-c2ncc(CN3CCC3)cc2Cl)cc1
22.4 µM

# IC50 lookup, item CCN1CCN(Cc2cnc(-c3ccc(C(=O)Nc4ccccc4N)cc3)c(F)c2)CC1
> 31.6 µM

# IC50 lookup, item Nc1ccccc1NC(=O)c1ccc(-c2ncc(CN3CCC3)cc2F)cc1
> 25.1 µM

# IC50 lookup, item N#Cc1cc(CN2CCC2)cnc1-c1ccc(C(=O)Nc2ccccc2N)cc1
> 25.1 µM

Measured values drawn from ChEMBL document CHEMBL1144843 for this set.
